Target: USP28 (His-tagged USP28-FL-mammalian) (Homo sapiens)
Construct: Expression of USP28 (1-1077)-TEV-6*His (pTT5 vector); made in house; host or cells: Expi293f cells (pTT5 vector)
Test: Ubiquitin-Rhodamine 110 Assay for USP28 Activity, Example A-1(a)
Assay type: biochemical
Settings: Ubiquitin-Rhodamine 110 assay, Example A-1(a); read-out: USP28 A-1(a) IC50 range
Description: Example A-1(a): Biochemical Assay: Ubiquitin-Rhodamine 110 Assay for USP28 Activity […] For assay formats Example A-1(a), A-1(b), and A-2, data were reported as percent inhibition compared with control wells based on the following equation: % inh=1−((FLU−AveLow)/(AveHigh−AveLow)) where FLU=measured Fluorescence, AveLow=average Fluorescence of no enzyme control (n=16), and AveHigh=average Fluorescence of DMSO control (n=16). […]
pIC50: −log10 of the molar value.
Reported values of pIC50 for individual entries

{"columns": ["molecule", "pIC50"],
 "data": [
  ["Cc1ccc2c(N)c(C(=O)N[C@H]3COc4cc(N5CC[C@H](N)C5)ccc4C3)sc2n1", "7.30 to 9.00"],
  ["Cc1ccc2c(N)c(C(=O)N[C@@H]3Cc4ccc(N5CCNCC5)nc4C4(CC4)C3)sc2n1 (single isomer, unassigned)", "6.70 to 7.30"],
  ["Cc1ccc2c(N)c(C(=O)N[C@H]3COc4cc(N5CC6CCC(C5)N6)cc(F)c4C3)oc2n1", "5.70 to 6.70"],
  ["Cc1ccc2c(N)c(C(=O)N[C@H]3COc4cc(N5CCC(O)CC5)ccc4C3)sc2n1", "7.30 to 9.00"]
]}

* * *

Target: USP28 (USP28-5(1-1077)-TEV-6*His; LifeSensors) (Homo sapiens)
Construct: construct USP28 (USP28-5(1-1077)-TEV-6*His; LifeSensors); TEV cleavage site (C); 6xHis (C); purchased LifeSensors
Sequence (Q96RU2 1-1077): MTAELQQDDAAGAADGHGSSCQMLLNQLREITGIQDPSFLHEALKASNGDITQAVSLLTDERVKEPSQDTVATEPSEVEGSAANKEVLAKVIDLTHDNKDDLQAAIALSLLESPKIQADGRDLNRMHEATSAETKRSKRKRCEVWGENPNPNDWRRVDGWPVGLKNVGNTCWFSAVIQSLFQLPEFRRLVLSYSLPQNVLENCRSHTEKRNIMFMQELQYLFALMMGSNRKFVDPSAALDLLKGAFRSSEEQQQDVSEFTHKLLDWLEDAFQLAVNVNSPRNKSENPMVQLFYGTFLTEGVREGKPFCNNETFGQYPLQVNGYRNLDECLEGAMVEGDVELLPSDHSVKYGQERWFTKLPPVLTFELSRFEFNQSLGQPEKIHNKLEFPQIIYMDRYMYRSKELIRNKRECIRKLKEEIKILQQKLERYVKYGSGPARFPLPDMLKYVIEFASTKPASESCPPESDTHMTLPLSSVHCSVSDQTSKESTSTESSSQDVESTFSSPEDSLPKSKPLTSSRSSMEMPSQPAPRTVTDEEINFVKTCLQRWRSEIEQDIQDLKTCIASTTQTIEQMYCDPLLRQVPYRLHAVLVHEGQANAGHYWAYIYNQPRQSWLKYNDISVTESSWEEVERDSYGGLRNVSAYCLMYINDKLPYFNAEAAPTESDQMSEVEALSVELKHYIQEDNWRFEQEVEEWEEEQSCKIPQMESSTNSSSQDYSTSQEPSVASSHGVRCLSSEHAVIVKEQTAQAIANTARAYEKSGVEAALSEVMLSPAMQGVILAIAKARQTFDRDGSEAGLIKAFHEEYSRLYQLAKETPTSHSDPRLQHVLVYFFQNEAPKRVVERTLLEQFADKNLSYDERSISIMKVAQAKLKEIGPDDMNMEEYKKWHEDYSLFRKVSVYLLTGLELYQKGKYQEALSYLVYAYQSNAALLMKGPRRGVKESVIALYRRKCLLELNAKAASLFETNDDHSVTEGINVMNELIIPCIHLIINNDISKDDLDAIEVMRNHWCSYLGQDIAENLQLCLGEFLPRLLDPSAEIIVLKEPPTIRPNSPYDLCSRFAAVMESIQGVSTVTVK
Experiment: Ubiquitin-Rhodamine 110 Assay for USP28 Activity, Example A-1(b)
Format: biochemical
Conditions: Ubiquitin-Rhodamine 110 assay, Example A-1(b)
attribute measured: USP28 A-1(b) IC50 range

{"columns": ["molecule", "result"],
 "data": [
  ["CN[C@H]1CCN(c2ccc3c(c2)CC[C@@H](NC(=O)c2sc4nc(C)cnc4c2N)C3)C1 (single isomer, unassigned)", "+ (>2 μM)"],
  ["Cc1ccc2c(N)c(C(=O)N[C@H]3COc4cc(N5CCNCC5)ccc4[C@H]3C)sc2n1 (single isomer, unassigned)", "+ (>2 μM)"]
]}

* * *

biological target: USP28 (USP28-5(1-1077)-TEV-6*His; LifeSensors) (Homo sapiens); construct: construct USP28 (USP28-5(1-1077)-TEV-6*His; LifeSensors); TEV cleavage site (C); 6xHis (C); purchased LifeSensors; assay: Ubiquitin-Rhodamine 110 Assay for USP28 Activity, Example A-1(b); format: biochemical; conditions: Ubiquitin-Rhodamine 110 assay, format Example A-1(b)

{"columns": ["molecule", "USP28 A-1(b) IC50 range"],
 "data": [
  ["Cc1ccc2c(N)c(C(=O)N[C@H]3CCc4c(ccc(N5CC6CCC(C5)N6)c4F)C3)sc2n1 (single isomer, unassigned)", "++ (0.2-2 μM)"],
  ["Cc1ccc2c(N)c(C(=O)N[C@H]3CCc4c(ccc(N5CCNCC5)c4F)C3)sc2n1 (single isomer, unassigned)", "++ (0.2-2 μM)"]
]}

* * *

molecular target: USP25 (USP25-His6, Boston Biochem E-546) (Homo sapiens, UniProt Q9UHP3); construct: His6; purchased Boston Biochem E-546; test: Ubiquitin-Rhodamine 110 Assay for USP25 Activity, Example A-2; type: biochemical; conditions: Ubiquitin-Rhodamine 110 assay, Example A-2; read-out: USP25 A-2 IC50 range
Sequence (Q9UHP3 whole entry): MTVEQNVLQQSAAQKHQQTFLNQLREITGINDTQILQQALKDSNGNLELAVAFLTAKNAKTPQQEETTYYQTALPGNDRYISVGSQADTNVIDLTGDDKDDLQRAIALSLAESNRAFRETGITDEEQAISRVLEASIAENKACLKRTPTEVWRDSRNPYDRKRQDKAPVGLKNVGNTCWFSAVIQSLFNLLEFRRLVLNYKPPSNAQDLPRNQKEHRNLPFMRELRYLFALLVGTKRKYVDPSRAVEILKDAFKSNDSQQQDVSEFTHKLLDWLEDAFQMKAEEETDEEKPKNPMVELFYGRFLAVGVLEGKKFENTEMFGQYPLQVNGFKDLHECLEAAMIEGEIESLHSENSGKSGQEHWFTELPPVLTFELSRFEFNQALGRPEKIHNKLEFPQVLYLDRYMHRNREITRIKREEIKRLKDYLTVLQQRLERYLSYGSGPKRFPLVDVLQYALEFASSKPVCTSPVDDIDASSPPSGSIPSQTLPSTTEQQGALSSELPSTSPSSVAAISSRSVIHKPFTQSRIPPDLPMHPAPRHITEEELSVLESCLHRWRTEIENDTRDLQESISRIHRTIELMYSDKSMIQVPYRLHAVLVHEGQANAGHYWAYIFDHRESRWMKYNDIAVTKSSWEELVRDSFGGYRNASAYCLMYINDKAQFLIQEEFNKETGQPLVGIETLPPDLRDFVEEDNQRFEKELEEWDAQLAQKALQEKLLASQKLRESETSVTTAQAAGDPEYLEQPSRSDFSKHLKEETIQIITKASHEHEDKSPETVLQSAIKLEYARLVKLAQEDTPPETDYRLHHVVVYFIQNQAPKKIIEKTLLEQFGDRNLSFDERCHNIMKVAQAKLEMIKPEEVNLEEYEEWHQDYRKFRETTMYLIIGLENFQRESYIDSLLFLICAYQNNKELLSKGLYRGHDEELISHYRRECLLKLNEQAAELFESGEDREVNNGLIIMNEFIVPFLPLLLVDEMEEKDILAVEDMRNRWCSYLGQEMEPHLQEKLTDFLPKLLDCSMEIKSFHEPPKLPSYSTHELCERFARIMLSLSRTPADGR
pIC50: −log10 of the molar value.

{"columns": ["molecule", "pIC50"],
 "data": [
  ["Cc1ccc2c(N)c(C(=O)N[C@H]3COc4cc(N5CC[C@@H]6CNCC[C@@H]65)ccc4C3)sc2n1", "6.70 to 7.30"],
  ["Cc1ccc2c(N)c(C(=O)N[C@H]3COc4cc(N5C[C@H](N)[C@@H](F)C5)ccc4C3)sc2n1", "5.70 to 6.70"],
  ["Cc1nc2sc(C(=O)N[C@H]3COc4cc(N5CC6CCC(C5)N6)c(F)cc4C3)c(N)c2s1", "< 5.70"],
  ["CO[C@H]1CN(c2cc3c(c(F)c2F)C[C@@H](NC(=O)c2sc4nc(C)ccc4c2N)CO3)C[C@@H]1N", "5.70 to 6.70"],
  ["Cc1ccc2c(N)c(C(=O)N[C@H]3COc4cc([C@@H]5CCNC[C@@H]5O)ccc4C3)sc2n1", "6.70 to 7.30"],
  ["Cc1ccc2c(N)c(C(=O)N[C@H]3CCc4nc(N5C[C@H](N)[C@H](OC(C)C)C5)ccc4C3)sc2n1", "< 5.70"],
  ["Cc1ccc2c(N)c(C(=O)N[C@H]3COc4cc(N5C[C@@H](N)[C@@H](F)C5)ccc4C3)sc2n1 (single isomer, unassigned)", "5.70 to 6.70"],
  ["Cc1ccc2c(N)c(C(=O)N[C@H]3COc4cc(N5CC6CCC(C5)N6)c(C#N)c(F)c4C3)sc2n1", "7.30 to 9.00"],
  ["COC[C@@H]1CN(c2cc(F)c3c(c2F)OC[C@H](NC(=O)c2sc4nc(C)cc(C)c4c2N)C3)C[C@@H]1N", "5.70 to 6.70"],
  ["CO[C@H]1CN(c2ccc3c(c2)CC[C@H](NC(=O)c2cnc4c(c2)[C@@H]2C[C@@H]2CN4)C3)C[C@@H]1N", "< 5.70"],
  ["Cc1nc2sc(C(=O)N[C@H]3COc4c(F)c(N5CC6CCC(C5)N6)cc(F)c4C3)c(N)c2s1", "6.70 to 7.30"],
  ["Cc1ccc2c(N)c(C(=O)N[C@H]3COc4cc(N5C[C@H](N)CC56COC6)ccc4C3)sc2n1 (single isomer, unassigned)", "7.30 to 9.00"],
  ["CO[C@H]1CN(c2ccc3c(n2)CC[C@H](NC(=O)c2sc4nc(C)ccc4c2N)C3)C[C@H]1N", "< 5.70"],
  ["COC[C@H]1CN(c2ccc3c(c2)OC[C@H](NC(=O)c2sc4nc(C)ccc4c2N)C3)CCN1", "5.70 to 6.70"]
]}

* * *

# pIC50 per entry
target: USP25 (USP25-His6, Boston Biochem E-546) (Homo sapiens, UniProt Q9UHP3); construct: His6; purchased Boston Biochem E-546; test: Ubiquitin-Rhodamine 110 Assay for USP25 Activity, Example A-2; assay type: biochemical; details: Ubiquitin-Rhodamine 110 assay, Example A-2; read-out: USP25 A-2 IC50 range
pIC50: −log10 of the molar value.

{"columns": ["molecule", "pIC50"],
 "data": [
  ["Cc1ccc2c(N)c(C(=O)N[C@H]3COc4cc(N5C[C@@H]6CC[C@H]5CN6)ncc4C3)sc2n1", "7.30 to 9.00"],
  ["COC[C@@H]1CN(c2ccc3c(n2)CC[C@H](NC(=O)c2sc4nc(C)cnc4c2N)C3)C[C@@H]1N", "< 5.70"],
  ["COC[C@H]1CN(c2cc(F)c3c(c2)OC[C@H](NC(=O)c2sc4nc(C)ccc4c2N)C3)C[C@H]1N", "6.70 to 7.30"],
  ["Cc1ccc2c(N)c(C(=O)N[C@H]3COc4cc(N5C[C@@H]6OCCN[C@@H]6C5)ccc4C3)sc2n1", "5.70 to 6.70"],
  ["Cc1ccc2c(N)c(C(=O)N[C@H]3CCc4cc(N5CC6CNCC(C5)O6)c(C#N)cc4C3)sc2n1", "5.70 to 6.70"],
  ["COC[C@@H]1CN(c2ccc3c(c2)OC[C@H](NC(=O)c2sc4nc(C)ccc4c2N)C3)CCN1", "5.70 to 6.70"],
  ["Cc1ccc2c(N)c(C(=O)N[C@H]3COc4cc(N5C[C@H](N)[C@]6(CCCO6)C5)ccc4C3)sc2n1", "5.70 to 6.70"],
  ["COC[C@H]1CN(c2ccc3c(c2)OC[C@H](NC(=O)c2sc4nc(C)ccc4c2N)C3)C[C@@H]1N", "5.70 to 6.70"],
  ["Cc1cnc2c(N)c(C(=O)N[C@@H]3CCc4cc(N5CCNC[C@@H](O)C5)ccc4C3)sc2n1 (single isomer, unassigned)", "5.70 to 6.70"],
  ["CCn1ccc2cc(C(=O)N[C@H]3CCc4cc(N5C[C@H](OC)[C@@H](N)C5)ccc4C3)nnc21", "< 5.70"],
  ["O=C(N[C@H]1COc2cc(N3CCNCC3)ccc2C1)c1cnc2c(c1)CC[C@H]2O", "< 5.70"],
  ["CCO[C@H]1CN(c2ccc3c(n2)OC[C@H](NC(=O)c2sc4nc(C)cnc4c2N)C3)C[C@@H]1N", "< 5.70"],
  ["Cc1ccc2c(N)c(C(=O)N[C@H]3CCc4nc(N5C[C@H](OC6CCC6)[C@@H](N)C5)ccc4C3)sc2n1", "< 5.70"],
  ["CCO[C@H]1CN(c2ccc3c(c2)OC[C@H](NC(=O)c2sc4nc(C)ccc4c2N)C3)C[C@H]1N", "5.70 to 6.70"],
  ["CO[C@@H]1CN(c2ccc3c(c2F)OC[C@H](NC(=O)c2sc4nc(C)ccc4c2N)C3)C[C@H]1N", "5.70 to 6.70"],
  ["CO[C@H]1CN(c2ccc3c(n2)OC[C@H](NC(=O)c2sc4nc(C)cnc4c2N)C3)C[C@@H]1N", "< 5.70"],
  ["O=C(N[C@@H]1CCc2cc(N3CC4CCC(C3)N4)cc(F)c2C1)c1cnc2c(c1)[C@H]1C[C@H]1CN2", "5.70 to 6.70"],
  ["CCn1ccc2cc(C(=O)N[C@H]3COc4c(F)c([C@@H]5CCNC[C@@H]5O)cc(F)c4C3)nnc21", "< 5.70"],
  ["Cc1ccc2c(N)c(C(=O)N[C@H]3COc4cc(N5CC6CNC[C@@](C)(C5)O6)cc(F)c4C3)sc2n1", "5.70 to 6.70"],
  ["CO[C@H]1CN(c2nc3c(cc2F)C[C@@H](NC(=O)c2sc4nc(C)ccc4c2N)CC3)C[C@@H]1N", "< 5.70"],
  ["Cc1ccc2c(N)c(C(=O)N[C@H]3COc4cc(N5C[C@H]6CCN[C@H]6C5)ccc4C3)sc2n1", "6.70 to 7.30"],
  ["COC[C@H]1CN(c2nc3c(cc2F)C[C@H](NC(=O)c2sc4nc(C)ccc4c2N)CC3)C[C@H]1N (single isomer, unassigned)", "< 5.70"],
  ["COC[C@H]1CN(c2ccc3c(n2)CC[C@H](NC(=O)c2sc4nc(C)ccc4c2N)C3)C[C@@H]1N", "5.70 to 6.70"],
  ["COC[C@@H]1CN(c2cc(F)c3c(c2)OC[C@H](NC(=O)c2sc4nc(C)ccc4c2N)C3)C[C@@H]1N", "5.70 to 6.70"],
  ["Cc1nc2sc(C(=O)N[C@H]3CCc4nc(N5CCNCC5)ccc4C3)c(N)c2s1", "< 5.70"],
  ["Cc1ccc2c(N)c(C(=O)N[C@H]3COc4cc(N5C[C@H](N)[C@@]6(CCCO6)C5)ccc4C3)sc2n1", "5.70 to 6.70"],
  ["CO[C@@]1(C)CN(c2ccc3c(n2)OC[C@H](NC(=O)c2sc4nc(C)ccc4c2N)C3)C[C@@H]1N", "< 5.70"],
  ["COC[C@@H]1C[C@@H](N)CN1c1ccc2c(c1)OC[C@H](NC(=O)c1sc3nc(C)ccc3c1N)C2", "7.30 to 9.00"]
]}
